Property: DM Caco2 B to A; scope: individual compounds
Tested on: Caco-2 cells (clone C2BBe1)
Test: CACO-2 permeability
Format: in vitro ADME
Set-up: unit not given here
Conditions: basolateral to apical

Use the examples below as a reference point.
compound	experimental.system	value
CCC(CC)COC(=O)OC[C@H]1O[C@@](C#N)(c2ccc3c(N)ncnn23)[C@H](O)[C@@H]1O [Compound 15]	Caco-2 cells (clone C2BBe1)	12
N#C[C@@]1(c2ccc3c(N)ncnn23)O[C@H](COC(=O)OCC23CCC(CC2)C3)[C@@H](O)[C@H]1O [Compound 52]	Caco-2 cells (clone C2BBe1)	13.04
CC1(OC(=O)OC[C@H]2O[C@@](C#N)(c3ccc4c(N)ncnn34)[C@H](O)[C@@H]2O)CCCC1 [Compound 56]	Caco-2 cells (clone C2BBe1)	1.83

Please turn your attention to the following entry.
Given the compound CCOC(=O)OC[C@H]1O[C@@](C#N)(c2ccc3c(N)ncnn23)[C@@H]2OC(CC)O[C@@H]21 (stereo partly shown) [Compound 132] , what is its reported DM Caco2 B to A?
13.86

---

Assay: Plasma stability
Assay type: in vitro ADME
Design: unit not given here
Conditions: 37° C., 2 μM substrate
Property: STA Human Plasma 37; scope: individual molecules
Lab note: jot down the number only; don't add units.

molecule	STA Human Plasma 37
N#C[C@@]1(c2ccc3c(N)ncnn23)O[C@H](COC(=O)OCC2CCCC2)[C@@H](O)[C@H]1O	38.6
CC(C)COC(=O)OC[C@H]1O[C@@](C#N)(c2ccc3c(N)ncnn23)[C@H](OC(=O)C(C)C)[C@@H]1OC(=O)C(C)C	30.6
CC(C)OC(=O)[C@H]([C@@H](C)OC(=O)OC[C@H]1O[C@@](C#N)(c2ccc3c(N)ncnn23)[C@H](O)[C@@H]1O)N(C)C	299.49
CCCCCCCCCCOC(=O)OC[C@H]1O[C@@](C#N)(c2ccc3c(N)ncnn23)[C@H](O)[C@@H]1O	192.3
N#C[C@@]1(c2ccc3c(N)ncnn23)O[C@H](COC(=O)OCc2ncccn2)[C@@H](O)[C@H]1O	285
CC1(COC(=O)OC[C@H]2O[C@@](C#N)(c3ccc4c(N)ncnn34)[C@H](O)[C@@H]2O)CCC1	34.1
N#CCC1(COC(=O)OC[C@H]2O[C@@](C#N)(c3ccc4c(N)ncnn34)[C@H](O)[C@@H]2O)CC1	40.7
CC1(COC(=O)OC[C@H]2O[C@@](C#N)(c3ccc4c(N)ncnn34)[C@H](O)[C@@H]2O)CCCC1	96.5

Given the molecule `CCOC(=O)OC[C@H]1O[C@@](C#N)(c2ccc3c(N)ncnn23)[C@H](OC(C)=O)[C@@H]1OC(C)=O` , what is its reported STA Human Plasma 37?
3

And for `COc1ccc(CCOC(=O)OC[C@H]2O[C@@](C#N)(c3ccc4c(N)ncnn34)[C@H](O)[C@@H]2O)cc1` ?
28.8

And for `CC(C)OC(=O)Nc1ncnn2c([C@]3(C#N)O[C@H](COC(=O)OC(C)C)[C@@H](OC(=O)OC(C)C)[C@H]3O)ccc12` ?
488.7

And for `CCC(C)(C)OC(=O)OC[C@H]1O[C@@](C#N)(c2ccc3c(N)ncnn23)[C@H](O)[C@@H]1O` ?
1399.3

And for N#C[C@@]1(c2ccc3c(N)ncnn23)O[C@H](COC(=O)OC2CCOC2)[C@@H](O)[C@H]1O (some centres unmarked) ?
135.19

And for `CC(C)(C)OC(=O)OC[C@H]1O[C@@](C#N)(c2ccc3c(N)ncnn23)[C@H](O)[C@@H]1O` ?
553.13
